Reported log10 IC50 values follow for various compounds
Target: 5-lipoxygenase/FLAP (Homo sapiens, UniProt P09917+P20292)
Assay: Inhibition of calcium ionophore (A23187) stimulated LTB4 formation in human neutrophils
Format: functional
In our notation, the value equals log10 of IC50 in nM.

                                   compound                        measurement_target  recorded_endpoint  obs_value
0  CC(C)(/C=N/OCC(=O)O)Cc1c(SC(C)(C)C)c2cc(OCc3ccc4ccccc4n3)ccc2n1Cc1ccc(Cl)cc1  5-lipoxygenase/FLAP (Homo sapiens, UniProt P09917+P20292)         log10 IC50       1.08

In: Look up log10 IC50 for this compound: CC(C)c1ccc2c(c1)c(SC(C)(C)C)c(CC(C)(C)CN(O)C(N)=O)n2Cc1ccc(Cl)cc1
Out: -0.77

In: Look up log10 IC50 for this compound: CC(C)(/C=N/OCC(=O)O)Cc1c(SC(C)(C)C)c2cc(OCc3cccc(Cl)n3)ccc2n1Cc1ccc(Cl)cc1
Out: 1.00

In: Look up log10 IC50 for this compound: CC(C)(C)Sc1c(CC(C)(C)C(=O)O)n(Cc2ccc(Cl)cc2)c2ccc(OCc3nccs3)cc12
Out: 0.85

====

Biological target: 5-lipoxygenase/FLAP (Homo sapiens, UniProt P09917+P20292)
Sequence (P09917 whole entry): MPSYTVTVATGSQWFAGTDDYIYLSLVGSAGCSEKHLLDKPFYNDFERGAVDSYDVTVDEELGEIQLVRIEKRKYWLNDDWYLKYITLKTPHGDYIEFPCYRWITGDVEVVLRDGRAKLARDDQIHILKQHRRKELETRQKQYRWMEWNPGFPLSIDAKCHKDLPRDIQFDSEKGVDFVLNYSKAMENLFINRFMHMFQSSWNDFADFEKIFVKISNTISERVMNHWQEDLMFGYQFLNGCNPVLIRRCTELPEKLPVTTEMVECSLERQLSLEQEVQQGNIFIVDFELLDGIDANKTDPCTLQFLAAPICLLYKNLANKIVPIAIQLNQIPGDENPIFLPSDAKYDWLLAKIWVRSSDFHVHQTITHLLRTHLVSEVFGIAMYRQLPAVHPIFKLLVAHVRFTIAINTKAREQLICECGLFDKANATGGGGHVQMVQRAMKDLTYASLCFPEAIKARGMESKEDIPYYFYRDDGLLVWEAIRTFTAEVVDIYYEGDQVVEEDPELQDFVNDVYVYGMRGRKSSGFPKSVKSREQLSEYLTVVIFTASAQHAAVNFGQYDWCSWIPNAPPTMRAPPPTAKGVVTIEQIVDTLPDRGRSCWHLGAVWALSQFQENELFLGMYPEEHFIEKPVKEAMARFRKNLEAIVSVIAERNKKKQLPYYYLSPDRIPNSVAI
Sequence (P20292 whole entry): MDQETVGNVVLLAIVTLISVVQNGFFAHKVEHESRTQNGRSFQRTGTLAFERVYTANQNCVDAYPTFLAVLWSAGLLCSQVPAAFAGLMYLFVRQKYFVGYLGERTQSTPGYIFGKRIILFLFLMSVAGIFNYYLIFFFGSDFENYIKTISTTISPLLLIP
Test: Human whole blood was stimulated with calcium ionophore (A23187) and LTB 4 measured by enzyme immunoassay
Assay type: functional, tissue-based
pIC50: −log10 of the molar value.
Outcome label depends on pIC50 relative to 6: at/above gives Met, below gives Not met.

Study these solved cases before continuing.
>>> print(df.to_string())
                                   compound  class_name
0  CC(C)(C)Sc1c(CC(C)(C)C(=O)O)n(Cc2ccc(Cl)cc2)c2ccc(OCc3cscn3)cc12         Met
1  CC(C)(C)Sc1c(CC(C)(C)C(=O)O)n(Cc2ccc(Cl)cc2)c2ccc(OCc3ccc4ccccc4n3)cc12 [QUIFLAPON]         Met
2  CC(C)c1ccc2c(c1)c(SC(C)(C)C)c(CC(C)(C)C(=O)O)n2Cc1ccc(Cl)cc1         Met
3  CC(C)(C)Sc1c(CC(C)(C)C(=O)O)n(Cc2ccc(Cl)cc2)c2ccc(OCc3cccc(Cl)n3)cc12         Met
4  CC(C)c1ccc2c(c1)c(SC(C)(C)C)c(CC(C)(C)CN(O)C(N)=O)n2Cc1ccc(Cl)cc1     Not met
5  CC(C)(/C=N/OCC(=O)O)Cc1c(SC(C)(C)C)c2cc(OCc3cscn3)ccc2n1Cc1ccc(Cl)cc1         Met
6  CO/N=C/C(C)(C)Cc1c(SC(C)(C)C)c2cc(C(C)C)ccc2n1Cc1ccc(Cl)cc1     Not met
7  CC(C)(C)Sc1c(CC(C)(C)C(=O)O)n(Cc2ccc(Cl)cc2)c2ccc(OCc3ccc4ccccc4c3)cc12     Not met

In: // inclusive: pIC50 at least 6? input: CC(C)(/C=N/OCC(=O)O)Cc1c(SC(C)(C)C)c2cc(OCc3ccccn3)ccc2n1Cc1ccc(Cl)cc1
Out: Met

In: // inclusive: pIC50 at least 6? input: CC(C)(/C=N/OCC(=O)O)Cc1c(SC(C)(C)C)c2cc(OCc3ccc4ccccc4n3)ccc2n1Cc1ccc(Cl)cc1
Out: Met

In: // inclusive: pIC50 at least 6? input: CC(C)c1ccc2c(c1)c(SC(C)(C)C)c(CC(C)(C)/C=N/O)n2Cc1ccc(Cl)cc1
Out: Not met

In: // inclusive: pIC50 at least 6? input: CC(C)(/C=N/OCC(=O)O)Cc1c(SC(C)(C)C)c2cc(OCc3cccc(Cl)n3)ccc2n1Cc1ccc(Cl)cc1
Out: Met

In: // inclusive: pIC50 at least 6? input: CC(C)(C)Sc1c(CC(C)(C)C(=O)O)n(Cc2ccc(Cl)cc2)c2ccc(OCc3nc4ccccc4s3)cc12
Out: Met

In: // inclusive: pIC50 at least 6? input: CC(C)(C)Sc1c(CC(C)(C)C(=O)O)n(Cc2ccc(Cl)cc2)c2ccc(OCc3ccccn3)cc12
Out: Met

====

Reported pIC50 values follow for various compounds
Molecular target: 5-lipoxygenase/FLAP (Homo sapiens, UniProt P09917+P20292)
Sequence (P09917 whole entry): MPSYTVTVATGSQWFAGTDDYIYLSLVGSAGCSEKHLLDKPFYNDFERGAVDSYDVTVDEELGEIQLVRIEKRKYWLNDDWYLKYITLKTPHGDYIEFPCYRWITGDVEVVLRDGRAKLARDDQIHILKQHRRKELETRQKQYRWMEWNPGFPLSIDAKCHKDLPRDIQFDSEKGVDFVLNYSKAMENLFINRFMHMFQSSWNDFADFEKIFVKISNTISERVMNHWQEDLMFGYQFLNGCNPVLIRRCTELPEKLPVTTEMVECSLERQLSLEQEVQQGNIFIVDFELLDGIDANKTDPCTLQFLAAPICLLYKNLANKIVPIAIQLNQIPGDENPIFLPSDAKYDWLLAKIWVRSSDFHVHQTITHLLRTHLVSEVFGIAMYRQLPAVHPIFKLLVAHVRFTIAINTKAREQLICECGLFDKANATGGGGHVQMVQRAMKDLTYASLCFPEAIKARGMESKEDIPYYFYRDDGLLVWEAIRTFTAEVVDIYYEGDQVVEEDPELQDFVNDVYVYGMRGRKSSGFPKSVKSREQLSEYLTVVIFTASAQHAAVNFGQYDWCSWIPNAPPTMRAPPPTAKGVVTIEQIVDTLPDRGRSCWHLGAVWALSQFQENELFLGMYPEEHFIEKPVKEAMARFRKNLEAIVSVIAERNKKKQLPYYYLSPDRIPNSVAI
Sequence (P20292 whole entry): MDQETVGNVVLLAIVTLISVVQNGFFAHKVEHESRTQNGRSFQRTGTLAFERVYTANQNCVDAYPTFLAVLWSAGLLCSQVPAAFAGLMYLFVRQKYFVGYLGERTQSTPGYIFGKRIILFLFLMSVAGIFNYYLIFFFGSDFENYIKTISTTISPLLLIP
Test: Inhibition of calcium ionophore (A23187) stimulated LTB4 formation in human neutrophils
Type: functional
pIC50 is defined as minus the log10 of a concentration measured in mol/L.

>>> df
                                   compound  recorded_endpoint  obs_value
0  CC(C)c1ccc2c(c1)c(SC(C)(C)C)c(CC(C)(C)/C=N/O)n2Cc1ccc(Cl)cc1              pIC50       9.57
1  CC(C)c1ccc2c(c1)c(SC(C)(C)C)c(CC(C)(C)CNC(N)=O)n2Cc1ccc(Cl)cc1              pIC50       9.74
2  CC(C)(/C=N/OCC(=O)O)Cc1c(SC(C)(C)C)c2cc(OCc3cscn3)ccc2n1Cc1ccc(Cl)cc1              pIC50       7.96
3  CC(C)c1ccc2c(c1)c(SC(C)(C)C)c(CC(C)(C)C(=O)O)n2Cc1ccc(Cl)cc1              pIC50      10.52
4  CC(C)(C)Sc1c(CC(C)(C)C(=O)O)n(Cc2ccc(Cl)cc2)c2ccc(OCc3nc4ccccc4s3)cc12              pIC50       8.00

For the next question, use this compound.
In: Look up pIC50 for this compound: CC(C)(C)Sc1c(CC(C)(C)C(=O)O)n(Cc2ccc(Cl)cc2)c2ccc(OCc3cccc(Cl)n3)cc12
Out: 7.77

Data origin: ChEMBL document CHEMBL1129110
